- study system: human PAC1 (Homo sapiens, UniProt P41586)
- Sequence (P41586 21-468): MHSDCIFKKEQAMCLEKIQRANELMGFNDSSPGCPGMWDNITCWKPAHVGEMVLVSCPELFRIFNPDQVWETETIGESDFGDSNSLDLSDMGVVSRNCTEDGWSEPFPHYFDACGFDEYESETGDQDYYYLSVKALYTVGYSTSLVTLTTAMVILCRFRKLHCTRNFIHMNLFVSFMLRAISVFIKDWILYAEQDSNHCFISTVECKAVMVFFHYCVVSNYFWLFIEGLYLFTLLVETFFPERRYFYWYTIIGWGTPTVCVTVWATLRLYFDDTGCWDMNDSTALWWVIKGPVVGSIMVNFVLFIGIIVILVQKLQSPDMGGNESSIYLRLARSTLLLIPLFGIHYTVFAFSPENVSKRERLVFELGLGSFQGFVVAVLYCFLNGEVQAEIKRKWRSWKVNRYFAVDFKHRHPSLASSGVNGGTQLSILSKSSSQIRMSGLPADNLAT
- assay explanation: Filter binding assay, membranes of cells transiently transfected with human PAC1, 125I-labeled PACAP-27 tracer (Table 2)
- Set-up: expressed in transfected cells
- experimental setup: read-out: Human PAC1 Receptor Binding
Where no end group is shown, it is not given here. [ ]: non-standard residue; d: D form. The star is where a group is joined. Hexanoyl = CCCCCC(=O)*; Aib = CC(C)(N)C(=O)O
This section presents substances with their documented IC50 values.

| substance | qualifier operator | IC50, nM |
| --- | --- | --- |
| Hexanoyl-HSD[Aib]VFTDNYTRLRKQVAAKKYLQSIKNKRYGGPSSGAPPPS [Agonist P209] | = | 343 |
| Hexanoyl-HSDAVFTDNYTRLRKQVAAKKYLQFIKNKRYGGPSSGAPPPS [Agonist P112] | = | 164 |
| Hexanoyl-HSDAVFTDNYTRLR[Aib]QVAA[Aib]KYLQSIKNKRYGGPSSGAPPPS [Agonist P261] | > | 25000 |
| Hexanoyl-HSDAVFTDNYTRLRKQVAAKKY[Aib]QSIKNKRYGGPSSGAPPPS [Agonist P236] | = | 225 |
| Hexanoyl-HSDAVFTDNYTRLQKQVAAKKYLQSIKNKRYGGPSSGAPPPS [Agonist P172] | = | 500 |
| Hexanoyl-HSDAVFTDNYTRLRFQVAAKKYLQSIKNKRYGGPSSGAPPPS [Agonist P180] | = | 589 |
| Hexanoyl-HSDAVFTDNYTRLRKQVAAKKYVQSIKNKRYGGPSSGAPPPS [Agonist P234] | = | 248 |
| Hexanoyl-HSDAVFTDNYTRLR[Aib]QVAAVKYLQSIKNKRYGGPSSGAPPPS [Agonist P262] | > | 25000 |
| Hexanoyl-HSDAVFTDNYTRLRKQVAAKKFLQSIKNKRYGGPSSGAPPPS [Agonist P130] | = | 444 |
| Hexanoyl-HSDAVFTDNYTRLRKQVAATKYLQSIKNKRYGGPSSGAPPPS [Agonist P152] | = | 672 |
| Hexanoyl-HSDAVFTDNYTRL[Aib]KQVAAKKYLQSIKNKRYGGPSSGAPPPS [Agonist P167] | = | 1010 |
| Hexanoyl-HSDAVFTDNYTRLR[Aib]QVAAAKYLQSIKNKRYGGPSSGAPPPS [Agonist P263] | = | 636 |
| Hexanoyl-HSDAVFTYNYTRLRKQVAAKKYLQSIKNKRYGGPSSGAPPPS [Agonist P163] | = | 238 |

* * *

This section presents substances with their documented IC50 values.
- study system: human PAC1 (Homo sapiens, UniProt P41586)
- assay explanation: Filter binding assay, membranes of cells transiently transfected with human PAC1, 125I-labeled PACAP-27 tracer (Table 2)
- Design: expressed in transfected cells
- experimental setup: read-out: Human PAC1 Receptor Binding
- Procedure: For this assay, the solutions and equipment include: Presoak solution: 0.5% Polyethyleneamine in Aqua dest. Buffer for flushing filter plates: 25 mM HEPES pH 7.4 Blocking buffer: 25 mM HEPES pH 7.4; 0.2% protease free BSA Assay buffer: 25 mM HEPES pH 7.4; 0.5% protease free BSA Dilution and assay plate: PS-Microplate, U form Filtration Plate Multiscreen FB Opaque Plate; […] Type B Glasfiber filter In order to prepare the filter plates, aspirate the presoak solution by vacuum filtration. […]
Where no end group is shown, it is not given here. [ ]: non-standard residue; d: D form. The star is where a group is joined. Hexanoyl = CCCCCC(=O)*; Aib = CC(C)(N)C(=O)O
parameter measured: IC50

| substance | meas value |
| --- | --- |
| Hexanoyl-HSDAVFTDNYTRLRKQVALKKYLQSIKNKRYGGPSSGAPPPS [Agonist P155] | 148 nM |
| Hexanoyl-HSDAVFTDNYTRLRAQLAAQKYLQSIKNKRYGGPSSGAPPPS [Agonist P142] | 1190 nM |
| Hexanoyl-HSDAVFTDNYTRL[Aib]KQLAA[Aib]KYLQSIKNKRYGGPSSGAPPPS [Agonist P240] | > 25000 nM |
| Hexanoyl-HGEGTFTDNYTRLRKQVAAKKYLQSIKNKRYGGPSSGAPPPS [Agonist P222] | 466 nM |
| Hexanoyl-HSDAVFTDNYTRLRKQVAAKKYIQSIKNKRYGGPSSGAPPPS [Agonist P233] | 320 nM |
| Hexanoyl-HSDAVFTDNYTRLRRQVAARRYLQSIRNRRYGGPSSGAPPPS [Agonist P98] | 96.3 nM |
| Hexanoyl-HSDAVFTDNYTRLK[Aib]QVAA[Aib]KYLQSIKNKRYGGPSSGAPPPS [Agonist P318] | > 25000 nM |
| Hexanoyl-HSDAVFTDNYTRLRKQVAAKKYLQSIKNKKGGPSSGAPPPS [Agonist P121] | 253 nM |
| Hexanoyl-HSDAVFTDNYTRLRQQVAAKKYLQSIKNKRYGGPSSGAPPPS [Agonist P177] | 276 nM |
| Hexanoyl-HSDAVFTDNYTRLRKQVAAKKYLQ[Aib]IKNKRYGGPSSGAPPPS [Agonist P187] | 296 nM |
| Hexanoyl-HSDAVFTDNYTRLRKQVAAKKYLQSFKNKRYGGPSSGAPPPS [Agonist P106] | 1820 nM |
| Hexanoyl-HSDAVFTDNYTRLRKQVAAFKYLQSIKNKRYGGPSSGAPPPS [Agonist P148] | 1000 nM |
| Hexanoyl-HSDAVFTDNYTRLRKQVAAK[Aib]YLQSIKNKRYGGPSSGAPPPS [Agonist P170] | 200 nM |
| Hexanoyl-HSDAVFTDNYTRLRKQVAAYKYLQSIKNKRYGGPSSGAPPPS [Agonist P147] | 464 nM |
| Hexanoyl-HSEAVFTENYTRLR[Aib]QVAA[Aib]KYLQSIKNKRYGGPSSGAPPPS [Agonist P314] | > 25000 nM |
| Hexanoyl-HSDAVFTDNYTRL[Aib]KQVAA[Aib]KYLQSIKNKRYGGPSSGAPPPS [Agonist P242] | > 25000 nM |
| Hexanoyl-HSDAVFTLNYTRLRKQVAAKKYLQSIKNKRYGGPSSGAPPPS [Agonist P161] | 4260 nM |
